Reported IC50 at 48 h values follow for various compounds
Test: Cytotoxicity assay (MTT) on 3T3 mouse fibroblast cells
Assay type: cell-based
Conditions: 1-30 μM tested
// note: answer is a bare numeric in µM

Record excerpt, results attached:
COc1ccc(C=NN2C(c3n[nH]c(=S)[nH]3)=C(O)c3ccccc3S2(=O)=O)cc1OC	13.8
C=S1(=O)c2ccccc2C(O)=C(c2n[nH]c(=S)[nH]2)N1/N=C/c1ccc(OC)c(OC)c1OC (stereo not shown)	17.1
Oc1cccc(C(c2c[nH]c3ccc(Br)cc23)c2c[nH]c3ccc(Br)cc23)c1O	16.8
N#Cc1ccc2[nH]cc(C(c3ccccc3[N+](=O)[O-])c3c[nH]c4ccc(C#N)cc34)c2c1	9.56

For reference, reported IC50 at 48 h for C[C@@H]1C[C@@H]([C@H](O)CC2CC(=O)NC(=O)C2)C(=O)[C@@H](C)C1 [cycloheximide, reference compound] stands at 0.2

Data origin: patent US20170009272A1
